Taken from patent US20080279775A1.

Tested On: SERT (Rattus norvegicus, UniProt P31652)
Construct: Membranes from frozen rat midbrain were homogenized; from tissue; host or cells: frozen rat midbrain membranes
Sequence (P31652 whole entry): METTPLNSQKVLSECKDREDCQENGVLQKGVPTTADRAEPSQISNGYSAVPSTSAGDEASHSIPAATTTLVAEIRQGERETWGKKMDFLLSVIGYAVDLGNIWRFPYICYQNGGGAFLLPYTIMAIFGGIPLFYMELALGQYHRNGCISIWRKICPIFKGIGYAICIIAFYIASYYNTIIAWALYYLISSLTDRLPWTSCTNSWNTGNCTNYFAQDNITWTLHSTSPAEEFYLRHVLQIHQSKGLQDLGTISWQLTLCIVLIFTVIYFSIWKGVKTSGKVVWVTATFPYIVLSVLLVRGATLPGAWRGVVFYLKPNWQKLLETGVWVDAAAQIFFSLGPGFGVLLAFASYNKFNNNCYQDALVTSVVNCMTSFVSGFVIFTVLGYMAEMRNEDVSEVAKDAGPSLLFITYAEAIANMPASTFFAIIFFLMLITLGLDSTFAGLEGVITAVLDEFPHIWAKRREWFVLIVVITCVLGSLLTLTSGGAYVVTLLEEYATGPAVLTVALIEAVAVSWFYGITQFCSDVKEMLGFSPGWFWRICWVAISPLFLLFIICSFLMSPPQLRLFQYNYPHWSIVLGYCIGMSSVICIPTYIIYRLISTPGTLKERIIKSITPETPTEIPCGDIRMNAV
Assay Explanation: [3H]Citalopram binding assay
Condition Info: Ki ratio
Some compounds, each annotated with its measured Binding selectivity SERT/DAT.
// keep it numeric: no unit symbol after the value

                                smiles_repr                                 tested_on  measured_value
0  CN(C(c1ccc(F)cc1)c1ccc(F)cc1)[C@H]1C[C@H]2CC[C@@H](C1)N2C  SERT (Rattus norvegicus, UniProt P31652)             140
1  O=C(CCN1[C@@H]2CC[C@H]1C[C@@H](NC(c1ccc(F)cc1)c1ccc(F)cc1)C2)Nc1ccccc1  SERT (Rattus norvegicus, UniProt P31652)             132

From here, focus on the item given below.
q: Which Binding selectivity SERT/DAT value belongs to Fc1ccc(C(N[C@H]2C[C@H]3CC[C@@H](C2)N3)c2ccc(F)cc2)cc1 ?
a: 491

* * *

Tested On: NET (Rattus norvegicus)
Sequence (Q63380 1-617): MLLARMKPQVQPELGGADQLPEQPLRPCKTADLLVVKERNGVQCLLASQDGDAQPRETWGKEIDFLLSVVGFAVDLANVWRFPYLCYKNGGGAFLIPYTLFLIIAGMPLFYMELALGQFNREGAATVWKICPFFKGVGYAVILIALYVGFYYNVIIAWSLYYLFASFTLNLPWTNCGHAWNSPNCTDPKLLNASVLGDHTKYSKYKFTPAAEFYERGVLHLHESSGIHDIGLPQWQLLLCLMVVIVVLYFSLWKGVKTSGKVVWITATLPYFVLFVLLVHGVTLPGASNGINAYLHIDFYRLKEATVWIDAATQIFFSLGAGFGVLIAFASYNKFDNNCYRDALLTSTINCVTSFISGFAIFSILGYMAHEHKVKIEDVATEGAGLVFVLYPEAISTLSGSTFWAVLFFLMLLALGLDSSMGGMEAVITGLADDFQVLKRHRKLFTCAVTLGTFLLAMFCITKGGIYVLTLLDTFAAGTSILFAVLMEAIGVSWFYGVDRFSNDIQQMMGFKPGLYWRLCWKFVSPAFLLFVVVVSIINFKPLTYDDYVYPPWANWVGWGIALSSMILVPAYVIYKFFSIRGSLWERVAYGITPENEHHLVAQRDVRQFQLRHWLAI
Property: Ki (µM)
Give just the numeric value; µM need not be written.

q: Which Ki value belongs to CN1[C@@H]2CC[C@H]1C[C@H](NC(c1ccc(F)cc1)c1ccc(F)cc1)C2 ?
a: 15.2

* * *

Tested On: muscarinic M1 receptor (Rattus norvegicus)
Construct: Membranes from frozen rat brains excluding cerebellum were thawed in ice-cold buffer; from tissue; host or cells: frozen rat brain (excluding cerebellum) membranes
Sequence (P08482 whole entry): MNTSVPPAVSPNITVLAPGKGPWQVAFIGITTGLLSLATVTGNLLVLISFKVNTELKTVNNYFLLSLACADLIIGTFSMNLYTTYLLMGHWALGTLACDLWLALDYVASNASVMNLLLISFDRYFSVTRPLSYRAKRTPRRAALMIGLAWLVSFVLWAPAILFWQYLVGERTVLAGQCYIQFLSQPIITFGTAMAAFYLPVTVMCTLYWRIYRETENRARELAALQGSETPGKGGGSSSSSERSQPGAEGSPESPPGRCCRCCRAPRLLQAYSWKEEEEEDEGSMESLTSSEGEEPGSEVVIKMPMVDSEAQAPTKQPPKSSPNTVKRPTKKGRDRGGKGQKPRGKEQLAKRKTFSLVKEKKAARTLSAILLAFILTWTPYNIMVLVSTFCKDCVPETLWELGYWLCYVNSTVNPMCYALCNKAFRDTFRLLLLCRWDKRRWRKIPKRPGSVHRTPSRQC
Assay Explanation: [3H]Pirenzepine binding assay
Property: Ki (nM)
Give just the numeric value; nM need not be written.

In [3]: df
Out[3]:
                                smiles_repr                                 tested_on  measured_value
0  CN1[C@@H]2CC[C@H]1C[C@H](NC(c1ccc(F)cc1)c1ccc(F)cc1)C2  muscarinic M1 receptor (Rattus norvegicus)            59.4

From here, focus on the item given below.
q: Which Ki value belongs to CN(C(c1ccc(F)cc1)c1ccc(F)cc1)[C@H]1C[C@H]2CC[C@@H](C1)N2C ?
a: 18.6

* * *

Tested On: muscarinic M1 receptor (Rattus norvegicus)
Construct: Membranes from frozen rat brains excluding cerebellum were thawed in ice-cold buffer; from tissue; host or cells: frozen rat brain (excluding cerebellum) membranes
Assay Explanation: [3H]Pirenzepine binding assay
Condition Info: rat brain membranes excluding cerebellum; read-out: M1 [3H]pirenzepine Ki ± SEM
Some molecules, each annotated with its measured Ki.
Give just the numeric value; nM need not be written.

# annotated cases, reported Ki shown
In [3]: df
Out[3]:
                                smiles_repr                                 tested_on  measured_value
0  Fc1ccc(C(N[C@H]2C[C@H]3CC[C@@H](C2)N3CCCCc2ccccc2)c2ccc(F)cc2)cc1  muscarinic M1 receptor (Rattus norvegicus)             438
1  O=C(CCN1[C@@H]2CC[C@H]1C[C@@H](NC(c1ccc(F)cc1)c1ccc(F)cc1)C2)Nc1ccccc1  muscarinic M1 receptor (Rattus norvegicus)            2540

q: Which Ki value belongs to CN1[C@@H]2CC[C@H]1C[C@@H](NC(c1ccc(F)cc1)c1ccc(F)cc1)C2 ?
a: 7.81

q: Which Ki value belongs to C=CCN1[C@@H]2CC[C@H]1C[C@@H](NC(c1ccc(F)cc1)c1ccc(F)cc1)C2 ?
a: 130

q: Which Ki value belongs to CN1[C@@H]2CC[C@H]1C[C@@H](NC(c1ccc(Cl)cc1)c1ccc(Cl)cc1)C2 ?
a: 50

q: Which Ki value belongs to Fc1ccc(C(N[C@H]2C[C@H]3CC[C@@H](C2)N3)c2ccc(F)cc2)cc1 ?
a: 154

q: Which Ki value belongs to Fc1ccc(C(N[C@H]2C[C@H]3CC[C@@H](C2)N3CCc2c[nH]c3ccccc23)c2ccc(F)cc2)cc1 ?
a: 413
